# Tested on: HepG2 cells
# ASSAY INFO: HepG2 cytotoxicity counter-screen
# EXPERIMENTAL CONDITIONS: cytotoxic activity against HepG2 cells
Recorded Tox50 by entry

COMPOUND | SYSTEM | Tox50 [µM]
Cc1cccc(Nc2nc(N[C@@H]3CCCNC3)nc3cc[nH]c(=O)c23)c1.O=C(O)C(F)(F)F | HepG2 cells | 4.45
COc1cc2c(cc1S(=O)(=O)c1ccc(COc3ccc(C(F)(F)F)cc3)cc1)CNCC2.Cl | HepG2 cells | 16.6
COc1c(C2CCN(CCCCNC(=O)c3ccc(-c4ccc(Cl)cc4)c(OCCN(C)C)c3)CC2)ccc2c1CCCC2 | HepG2 cells | 5.71
Cn1c(-c2ccccc2)cc2c3c(N)nc(N)nc3ccc21 | HepG2 cells | 4.6
CCCOc1ccc(CCNCCCCNCCc2ccc(OCCC)c3ccccc23)c2ccccc12.CS(=O)(=O)O | HepG2 cells | 2.96
CCCCCCCCN1CCN(CCCCCCNc2c3ccccc3nc3ccccc23)CC1.Cl | HepG2 cells | 4.12
CN(C)CC(O)COc1ccc(Nc2ncc([N+](=O)[O-])c(Nc3ccccc3O)n2)cc1.O=C(O)C(F)(F)F (centres unmarked) | HepG2 cells | 2.69
COCCN(C)CCCOc1cc2c(cc1OC)ncn2-c1cc(OCc2ccccc2C(F)(F)F)c(C(N)=O)s1.Cl | HepG2 cells | 13.65

* * *

# Test system: P. falciparum male gametocytes
# ASSAY INFO: P. falciparum Dual Gamete Formation Assay (PfDGFA), male readout (exflagellation)
# Type: cell-based, Plasmodium falciparum NF54
# EXPERIMENTAL CONDITIONS: 2µM, 24h preincubation with gametocytes; replicate R1
READOUT: % inhibition male (individual replicates) R1 (%)

MOLECULE | NUMERIC VALUE
CS(=O)(=O)O.FC(F)(F)COc1ccc(CNCCCCCCNCc2ccc(OCC(F)(F)F)c3ccccc23)c2ccccc12 [TCMDC-137853] | 97.9
Nc1nc(N)c2cc(NC(=O)c3ccc(Cl)c(Cl)c3)ccc2n1 [TCMDC-141982] | 97.3
S=C(NN=Cc1ccccn1)NC1CC2C=CC1C2 (stereo not shown) [TCMDC-125752] | 99.9
CCCc1cc2c3c(N)nc(N)nc3ccc2n1CC [TCMDC-137946] | 97.3

* * *

# Test system: P. falciparum female gametocytes
# ASSAY INFO: P. falciparum Dual Gamete Formation Assay (PfDGFA), female readout (Pfs25-positive female gametes)
# Type: cell-based, Plasmodium falciparum NF54
# EXPERIMENTAL CONDITIONS: 2µM, 24h preincubation; number of replicates with >50% inhibition in the female readout
Recorded HitlevelF by entry
READOUT: HitlevelF

COMPOUND | READOUT | NUMERIC VALUE
CCn1c(-c2nonc2N)nc2c(-c3cccc(NC(=O)Nc4ccccc4OC)c3)ncc(OCCCN)c21.O=C(O)C(F)(F)F [TCMDC-136190] | HitlevelF | 1
NC1CCN(Cc2ccc(-c3ccc(-c4nc5ccccc5[nH]4)cc3)cc2)C1.O=C(O)C(F)(F)F (stereo not shown) [TCMDC-133868] | HitlevelF | 0
Cl.Clc1ccc(C2CCN(CCCOc3ccc4c(c3)CCNCC4)CC2)cc1 [TCMDC-141782] | HitlevelF | 1
COc1cc2nc(N3CCN(C(=O)c4c(Cl)nsc4-c4ccccc4Cl)CC3)nc(N)c2cc1OC.O=C(O)C(F)(F)F [TCMDC-138186] | HitlevelF | 1

* * *

# System: P. falciparum female gametocytes
# ASSAY INFO: P. falciparum Dual Gamete Formation Assay (PfDGFA), female readout (Pfs25-positive female gametes)
# Type: cell-based, Plasmodium falciparum NF54
# EXPERIMENTAL CONDITIONS: 2µM, 24h preincubation with gametocytes; replicate R1
Lab note: compare % inhibition female (individual replicates) R1 against 40%. Equal or greater, write 1.0. Smaller, write 0.0.

MOLECULE | SYSTEM | QUALITATIVE LABEL
CC(Cc1ccc(OCCCCOc2ccccc2)cc1)NCCC1CCCN1C (centres unmarked) [TCMDC-140017] | P. falciparum female gametocytes | 0.0
CN(CCCNCc1ccc2ccccc2c1)CCCNCc1ccc2ccccc2c1.Cl [TCMDC-137908] | P. falciparum female gametocytes | 0.0
Cl.N=C(NCCCCC1CCCCC1)c1cccc(C(=N)NCCCCC2CCCCC2)n1 [TCMDC-137452] | P. falciparum female gametocytes | 1.0
CN(C)CCCOc1ccc(CN2CCC(c3c[nH]c4ccc(NCC5CCCCC5)cc34)CC2)cc1.O=C(O)C(F)(F)F [TCMDC-140737] | P. falciparum female gametocytes | 1.0
Cl.O=S(=O)(Nc1cc2c(cc1OCCCN1CCCCC1)CCNCC2)c1ccc(-c2ccc(Cl)cc2)cc1 [TCMDC-141753] | P. falciparum female gametocytes | 0.0
CCCOc1ccc(CCNCCCCNCCc2ccc(OCCC)c3ccccc23)c2ccccc12.CS(=O)(=O)O [TCMDC-137952] | P. falciparum female gametocytes | 1.0
CC(=NNC(=S)NCCc1ccccn1)c1ccccn1 [TCMDC-137895] | P. falciparum female gametocytes | 1.0
Cl.N=C(N)NN=Cc1c2ccc(Cl)cc2c(Cl)c2ccc(Cl)cc12 [TCMDC-137884] | P. falciparum female gametocytes | 0.0
COc1cc2nc(N3CCC(CNC(=O)c4ccc(-c5ccc(-c6noc(C)n6)cc5)cc4)CC3)nc(N)c2cc1OC [TCMDC-138754] | P. falciparum female gametocytes | 0.0
CNCCNCc1ccc(-c2ccc(-c3nc4cc(C(F)(F)F)ccc4[nH]3)s2)cc1.O=C(O)C(F)(F)F [TCMDC-132838] | P. falciparum female gametocytes | 0.0
CCOC(=O)c1cc2c(CCN3C(=O)c4ccccc4C3=O)cn(C)c2cc1-c1ccncc1 [TCMDC-138099] | P. falciparum female gametocytes | 1.0
COc1cc(Nc2nccc(-c3c(-c4cccc(NC(=O)c5c(F)cccc5F)c4)nn4ncccc34)n2)cc(OC)c1OC [TCMDC-135684] | P. falciparum female gametocytes | 0.0

* * *

# System: P. falciparum female gametocytes
# ASSAY INFO: P. falciparum Dual Gamete Formation Assay (PfDGFA), female readout (Pfs25-positive female gametes)
# Assay type: cell-based, Plasmodium falciparum NF54
# EXPERIMENTAL CONDITIONS: 2µM, 24h preincubation with gametocytes prior to induction of gametogenesis; replicate R4
READOUT: % inhibition female (individual replicates) R4 (%)

SMILES ENTRY | UNIT SYMBOL | NUMERIC VALUE
COc1ccc(CNCc2ccc(F)cc2)cc1-c1cccc(S(=O)(=O)NCCN2CCCC2)c1.O=C(O)C(F)(F)F | % | 54.2
COc1cc2c(cc1OCCN1CCC(N)CC1)N(C(=O)/C=C/c1ccccc1Cl)CC2.Cl | % | 33.3
COc1cc(Cc2cnc(N)nc2N)cc(OCCCC(=O)O)c1OC | % | 31.0
Cc1cc(N2CCCN(CC3CCCCC3)CC2)nc(Nc2ccc(Br)cc2)n1 | % | 35.3

* * *

Recorded % inhibition female (individual replicates) R4 by entry
# Tested on: P. falciparum female gametocytes
# ASSAY INFO: P. falciparum Dual Gamete Formation Assay (PfDGFA), female readout (Pfs25-positive female gametes)
# Assay type: cell-based, Plasmodium falciparum NF54
# EXPERIMENTAL CONDITIONS: 2µM, 24h preincubation with gametocytes prior to induction of gametogenesis; replicate R4
READOUT: % inhibition female (individual replicates) R4 (%)

SMILES ENTRY | NUMERIC VALUE
CC(C)(C)c1ccc(N2C(N)=NC(N)=NC2(C)C)cc1.Cl | 16.4
COc1cccc(CCN(Cc2ccccc2-c2ccc(CNC3CC(C)(C)NC(C)(C)C3)cc2)C(=O)NC2CCCCC2)c1.Cl | 31.4
Cc1cc(F)ccc1-c1nc(NCCCNCCc2ccccc2)nc2c1ccc(=O)n2-c1c(F)cccc1F.O=C(O)C(F)(F)F | 62.0
CCc1ccc(N2C(N)=NC(N)=NC2(C)C)cc1.Cl | 12.9
Cl.NC1CCN(CCc2ccc(NS(=O)(=O)c3cccc4ccccc34)cc2)CC1 | 21.1
Cc1[nH]cc(Br)c(=O)c1-c1ccc(Oc2ccc(OC(F)(F)F)cc2)cc1 | -5.7
Nc1nc(N)c2c(ccc3c2cnn3Cc2cccnc2)n1 | 1.8
Oc1ccc2[nH]cc(C3CCN(CCCNCc4ccc(-c5ccccc5)cc4)CC3)c2c1 | 14.8

* * *

# Tested on: P. falciparum female gametocytes
# ASSAY INFO: P. falciparum Dual Gamete Formation Assay (PfDGFA), female readout (Pfs25-positive female gametes)
# Format: cell-based, Plasmodium falciparum NF54
# EXPERIMENTAL CONDITIONS: 2µM, 24h preincubation with gametocytes prior to induction of gametogenesis; replicate R1
Recorded % inhibition female (individual replicates) R1 by entry
READOUT: % inhibition female (individual replicates) R1 (%)

MOLECULE | NUMERIC VALUE
COc1ccc(CNCc2ccc(F)cc2)cc1-c1ccc(S(=O)(=O)NCCN2CCCC2)cc1.O=C(O)C(F)(F)F [TCMDC-132294] | 28.2
CN(C)CCN(Cc1ccc(-c2ccc(CNCCc3ccccc3)cc2)nc1)C(=O)CCC1CCCC1.O=C(O)C(F)(F)F [TCMDC-141402] | 22.3
COc1ccc(CCNCCCCCCNCCCc2ccc(Cl)cc2)cc1OC.Cl [TCMDC-131280] | 16.6
Br.Oc1ccc(CCNCCCCCCNCCc2ccc(Cl)c3ccccc23)cc1O [TCMDC-131271] | 16.8
